# System: recombinant human renin (Homo sapiens)
# Sequence (P00797 67-406): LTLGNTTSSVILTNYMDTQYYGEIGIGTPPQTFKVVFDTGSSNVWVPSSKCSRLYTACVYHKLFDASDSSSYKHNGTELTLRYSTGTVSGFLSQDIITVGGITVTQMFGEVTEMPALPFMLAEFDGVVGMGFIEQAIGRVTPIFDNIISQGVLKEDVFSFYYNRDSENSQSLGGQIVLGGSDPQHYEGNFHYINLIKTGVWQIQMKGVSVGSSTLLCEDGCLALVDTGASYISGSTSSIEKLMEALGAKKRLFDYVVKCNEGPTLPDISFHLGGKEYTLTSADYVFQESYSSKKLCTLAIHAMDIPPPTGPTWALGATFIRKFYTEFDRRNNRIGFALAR
# Experimental details: Primary renin inhibition assay: IC50 in buffer, 384 well MTP (AngI quantified by EIA)
pIC50: −log10 of the molar value.
Attribute measured: pIC50

(P) O=C([C@H]1[C@H]2CNC[C@@H](C[C@H]1c1ccc(CCCOc3c(F)ccc(F)c3Cl)cc1)N2)N(Cc1cccc(Cl)c1Cl)C1CC1 (racemic)
(Q) O=C([C@@H]1[C@@H](c2ccc(CCCOc3c(F)ccc(F)c3Cl)cc2)C[C@@H]2CNC[C@H]1N2)N(Cc1cccc(Cl)c1Cl)C1CC1 (racemic)
[ask] When the recorded pIC50 values are compared, which is smaller: that of P or that of Q ? Could you answer with the label of the item you picked?
[reply] P
